Organism: Rattus norvegicus
Assay: Ratio of test compound IC50 to losartan IC50 for bocking activity at AT1 receptor in rat aortic vascular smooth muscle cells assessed as inhibition of angiotensin-2-induced calcium flux
quantity.measured: Ratio IC50
The answer should be a number; do not append a unit.

- compound: "CCCCc1ncc(CCCOc2ccc(CC3SC(=O)NC3=O)cc2)n1Cc1ccc(-c2ccccc2-c2nn[nH]n2)cc1 (stereo not drawn)"
  quantity.measured: "Ratio IC50"
  reading: 1.1
- compound: "CCCCCS(=O)(=O)NC(=O)/C=C/c1c(Cl)nc(CCCC)n1Cc1ccc(-c2ccccc2-c2nn[nH]n2)cc1"
  quantity.measured: "Ratio IC50"
  reading: 11.1

Lab book: Ratio IC50 of O=C1NC(=O)C(Cc2ccc(OCc3cn(Cc4ccc(-c5ccccc5C(=O)O)cc4)cn3)cc2)S1 (stereo not drawn) noted as 3.4

====

Biological target: Peroxisome proliferator-activated receptor gamma (Homo sapiens) (UniProt P37231)
Assay: Transactivation of human PPARgamma expressed in human MCF7 cells harboring pPPRE3-tk-luc reporter at 10 uM after 24 hrs by luciferase reporter gene assay relative to control
Assay type: cell-based
Activity calls are given as the source filed them. The rule behind the calls is not given here.
Pick from active, inactive when you respond.

Use the examples below as a reference point.
- molecule: "O=C1NC(=O)C(Cc2ccc(OCc3cn(Cc4ccc(-c5ccccc5C(=O)O)cc4)cn3)cc2)S1 (stereo not drawn)"
  label: "inactive"
- molecule: "CCCCc1nc(CCCOc2ccc(CC3SC(=O)NC3=O)cc2)cn1Cc1ccc(-c2ccccc2C(=O)O)cc1 (stereo not drawn)"
  label: "active"
- molecule: "CCCCCCCCCCCCOCc1c(Cl)nc(CCCC)n1Cc1ccc(-c2ccccc2-c2nn[nH]n2)cc1"
  label: "active"
- molecule: "CCCCc1c(COc2ccc(CC3SC(=O)NC3=O)cc2)nnn1Cc1ccc(-c2ccccc2C(=O)O)cc1 (stereo not drawn)"
  label: "active"
- molecule: "COC(=O)c1ccccc1N[C@@H](Cc1ccc(OCC2(C)CCc3c(C)c(O)c(C)c(C)c3O2)cc1)C(=O)O (stereo partly drawn)"
  label: "active"

Recorded call for Cc1c(C)c2c(c(C)c1OCc1ccc(-c3ccccc3C(=O)O)cc1)CCC(C)(COc1ccc(/C=C3\SC(=O)NC3=O)cc1)O2 (stereo not drawn) ?
active

Which result was noted for this molecule in the test: CC(C)(C)OC(=O)c1ccccc1-c1ccc(Cn2cc(CCOc3ccc(CC4SC(=O)NC4=O)cc3)nn2)cc1 (stereo not drawn)
active

Lab log entry: O=C1NC(=O)C(Cc2ccc(OCc3cn(Cc4ccc(-c5ccccc5C(=O)O)cc4)nn3)cc2)S1 (stereo not drawn) — outcome as called in the assay?
inactive

====

Target: Peroxisome proliferator-activated receptor gamma (Homo sapiens)
Assay: Transactivation of human PPARgamma expressed in human MCF7 cells harboring pPPRE3-tk-luc reporter at 10 uM after 24 hrs by luciferase reporter gene assay relative to control
Assay type: cell-based
The source made the active and inactive calls. The calls are words filed in the database; no cut-off is given here.
Pick one and only one: 1 for active, 0 for inactive

Look over these answered cases.
- compound: "CCCCc1nc(Cl)c(COc2ccc(CC3SC(=O)NC3=O)cc2)n1Cc1ccc(-c2ccccc2-c2nn[nH]n2)cc1 (stereo not given)"
  target: "Peroxisome proliferator-activated receptor gamma (Homo sapiens)"
  label: 0
- compound: "Cc1c(C)c2c(c(C)c1OCc1ccc(-c3ccccc3C(=O)O)cc1)CCC(C)(COc1ccc(CC3SC(=O)NC3=O)cc1)O2 (stereo not given)"
  target: "Peroxisome proliferator-activated receptor gamma (Homo sapiens)"
  label: 1
- compound: "CCCCc1nc(Cl)c(COc2ccc(/C=C3\\SC(=O)NC3=O)cc2)n1Cc1ccc(-c2ccccc2-c2nn[nH]n2)cc1"
  target: "Peroxisome proliferator-activated receptor gamma (Homo sapiens)"
  label: 0
- compound: "COC(=O)c1ccccc1N[C@@H](Cc1ccc(OCC2(C)CCc3c(C)c(OCc4ccc(-c5ccccc5C(=O)O)cc4)c(C)c(C)c3O2)cc1)C(=O)O (stereo not given in full)"
  target: "Peroxisome proliferator-activated receptor gamma (Homo sapiens)"
  label: 1
- compound: "CCCCc1ncc(CCCOc2ccc(CC3SC(=O)NC3=O)cc2)n1Cc1ccc(-c2ccccc2-c2nn[nH]n2)cc1 (stereo not given)"
  target: "Peroxisome proliferator-activated receptor gamma (Homo sapiens)"
  label: 0
- compound: "CCCCc1nc(COc2ccc(CC3SC(=O)NC3=O)cc2)cn1Cc1ccc(-c2ccccc2C(=O)O)cc1 (stereo not given)"
  target: "Peroxisome proliferator-activated receptor gamma (Homo sapiens)"
  label: 1
- compound: "CCCCc1nc(Cl)c(CCCOc2ccc(CC3SC(=O)NC3=O)cc2)n1Cc1ccc(-c2ccccc2-c2nn[nH]n2)cc1 (stereo not given)"
  target: "Peroxisome proliferator-activated receptor gamma (Homo sapiens)"
  label: 0
- compound: "CCCCCS(=O)(=O)NC(=O)/C=C/c1c(Cl)nc(CCCC)n1Cc1ccc(-c2ccccc2-c2nn[nH]n2)cc1"
  target: "Peroxisome proliferator-activated receptor gamma (Homo sapiens)"
  label: 1
- compound: "O=C1NC(=O)C(Cc2ccc(OCCc3cn(Cc4ccc(-c5ccccc5C(=O)O)cc4)nn3)cc2)S1 (stereo not given)"
  target: "Peroxisome proliferator-activated receptor gamma (Homo sapiens)"
  label: 0
- compound: "CCCCc1nc(Cl)c(/C=C/C(=O)Oc2ccc(C[C@H](Nc3ccccc3C(=O)OC)C(=O)O)cc2)n1Cc1ccc(-c2ccccc2-c2nn[nH]n2)cc1"
  target: "Peroxisome proliferator-activated receptor gamma (Homo sapiens)"
  label: 1

For Cc1c(C)c2c(c(C)c1OCc1ccc(-c3ccccc3C(=O)OC(C)(C)C)cc1)CCC(C)(COc1ccc(/C=C3\SC(=O)NC3=O)cc1)O2 (stereo not given) , what call appears in the results of this test?
1

Given "CCCCc1nc(Cl)c(CO)n1Cc1ccc(-c2ccccc2-c2nnn[nH]2)cc1" , state the outcome it received in this test.
0

====

Species on record: Rattus norvegicus
Experiment: Blocking activity at AT1 receptor in rat aortic vascular smooth muscle cells assessed as inhibition of angiotensin-2-induced calcium flux at 10 uM preincubated for 20 mins followed by angiotensin-2 addition by Fura-2-AM dye based scanning fluorometric method relative to control
Activity calls are given as the source filed them. The calls are words filed in the database; no cut-off is given here.
quantity.measured: inhibition

Consider the following illustrative entries.
- molecule: "CCCCc1nc(Cl)c(/C=C/C(=O)Oc2ccc(C[C@H](Nc3ccccc3C(=O)OC)C(=O)O)cc2)n1Cc1ccc(-c2ccccc2-c2nn[nH]n2)cc1"
  inhibition: "> 50%"
- molecule: "CCCCc1nc(Cl)c(CCCOc2ccc(CC3SC(=O)NC3=O)cc2)n1Cc1ccc(-c2ccccc2-c2nn[nH]n2)cc1 (configuration not stated)"
  inhibition: "> 50%"
- molecule: "CCCCCS(=O)(=O)NC(=O)/C=C/c1c(Cl)nc(CCCC)n1Cc1ccc(-c2ccccc2-c2nn[nH]n2)cc1"
  inhibition: "> 50%"
- molecule: "CCCCc1c(COc2ccc(CC3SC(=O)NC3=O)cc2)nnn1Cc1ccc(-c2ccccc2C(=O)O)cc1 (configuration not stated)"
  inhibition: "inactive"
- molecule: "Cc1c(C)c2c(c(C)c1OCc1ccc(-c3ccccc3C(=O)O)cc1)CCC(C)(COc1ccc(CC3SC(=O)NC3=O)cc1)O2 (configuration not stated)"
  inhibition: "inactive"

Input "CCCCc1nc(Cl)c(COc2ccc(/C=C3\SC(=O)NC3=O)cc2)n1Cc1ccc(-c2ccccc2-c2nn[nH]n2)cc1" . Output inhibition: < 50%

Memo: "CCCCc1nc(Cl)c(CO)n1Cc1ccc(-c2ccccc2-c2nnn[nH]2)cc1" , reported inhibition: 78%

For reference, reported inhibition for "CCCCCCCCCCCCOCc1c(Cl)nc(CCCC)n1Cc1ccc(-c2ccccc2-c2nn[nH]n2)cc1" stands at > 50%

response.value for O=C1NC(=O)C(Cc2ccc(OCc3cn(Cc4ccc(-c5ccccc5C(=O)O)cc4)cn3)cc2)S1 (configuration not stated) (field: inhibition) = > 50%

Sample CCCCc1nc(CCCOc2ccc(CC3SC(=O)NC3=O)cc2)cn1Cc1ccc(-c2ccccc2C(=O)O)cc1 (configuration not stated) ; inhibition observed: > 50%

Lab note: measured inhibition of COC(=O)c1ccccc1N[C@@H](Cc1ccc(OCC2(C)CCc3c(C)c(OCc4ccc(-c5ccccc5C(=O)O)cc4)c(C)c(C)c3O2)cc1)C(=O)O (some centres not stated) was inactive

Data point: O=C1NC(=O)C(Cc2ccc(OCCc3cn(Cc4ccc(-c5ccccc5C(=O)O)cc4)nn3)cc2)S1 (configuration not stated) ; inhibition = inactive

====

Target: Peroxisome proliferator-activated receptor gamma (Homo sapiens)
Sequence (whole entry): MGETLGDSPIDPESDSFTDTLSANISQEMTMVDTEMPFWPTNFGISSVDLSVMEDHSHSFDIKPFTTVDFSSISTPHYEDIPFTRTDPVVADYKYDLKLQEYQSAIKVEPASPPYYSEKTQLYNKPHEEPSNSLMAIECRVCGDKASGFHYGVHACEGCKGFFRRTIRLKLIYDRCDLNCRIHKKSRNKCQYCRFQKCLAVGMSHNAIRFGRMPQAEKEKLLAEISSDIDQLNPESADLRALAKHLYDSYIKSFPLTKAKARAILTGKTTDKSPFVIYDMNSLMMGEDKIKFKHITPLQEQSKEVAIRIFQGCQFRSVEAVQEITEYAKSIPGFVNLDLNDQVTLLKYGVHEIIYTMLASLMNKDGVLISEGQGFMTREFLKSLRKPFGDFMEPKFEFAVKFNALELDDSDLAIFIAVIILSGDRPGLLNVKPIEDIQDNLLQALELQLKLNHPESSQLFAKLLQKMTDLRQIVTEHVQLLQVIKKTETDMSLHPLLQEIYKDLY
Test: Transactivation of human PPARgamma expressed in human MCF7 cells harboring pPPRE3-tk-luc reporter at 10 uM after 24 hrs by luciferase reporter gene assay relative to control
Type: cell-based
Activity calls are given as the source filed them. The calls are words filed in the database; no cut-off is given here.

- compound: "CCCc1nc2c(C)cc(-c3nc4ccccc4n3C)cc2n1Cc1ccc(-c2ccccc2C(=O)O)cc1"
  Activity: "Active"
- compound: "CCCCc1nc(Cl)c(/C=C/C(=O)Oc2ccc(CC3SC(=O)NC3=O)cc2)n1Cc1ccc(-c2ccccc2-c2nn[nH]n2)cc1 (stereo not drawn)"
  Activity: "Active"
- compound: "CC(C)(C)OC(=O)c1ccccc1-c1ccc(Cn2cc(COc3ccc(CC4SC(=O)NC4=O)cc3)nn2)cc1 (stereo not drawn)"
  Activity: "Active"
